Provide the reported protein stability index of each item.
B1: ESRRG (parent)
chain: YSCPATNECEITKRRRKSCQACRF

Variants of: B1
Experiment: protein stability index of a GFP-peptide fusion (GPS, HEK-293T) (PSI 1-6); higher = more stable;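 further: lentivirally expressed fusions sorted by FACS into six bins by GFP to DsRed ratio, PSI derived from sequencing read proportions per bin multiplied by bin number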
Conditions: c terminus: a fixed tail appended
Numbers only.

Please review the entries below; each comes with its answer.
residue_string="YSCPATNECEITKRRRKSCWACRF [Q20W]" reported_value=2.21
residue_string="YSCPATNECEITKRRRKSCQACYF [R23Y]" reported_value=3.3
residue_string="YSCPATNECEITKRRRKSCQLCRF [A21L]" reported_value=2.31
residue_string="YSCPATNECEITKRRDKSCQACRF [R16D]" reported_value=3.75
residue_string="YSYPATNECEITKRRRKSCQACRF [C3Y]" reported_value=3.81
residue_string="YSCPATNECEITKRSRKSCQACRF [R15S]" reported_value=3.48

Dear reader, for each entry below, please note its protein stability index.
1. YSCPATNECEITKRRRKICQACRF [S18I]
2. YSCPATNEWEITKRRRKSCQACRF [C9W]
3. YSCPATNECEIPKRRRKSCQACRF [T12P]

## Result
1. 3.16
2. 2.54
3. 3.86

Consider the following items and state reported protein stability index for each.
1. YSCPATNECEITCRRRKSCQACRF [K13C]
2. YSRPATNECEITKRRRKSCQACRF [C3R]
3. YSCPATNECEITKRRRKSCQQCRF [A21Q]
4. YSCPAENECEITKRRRKSCQACRF [T6E]
5. YSCPATNECEITKHRRKSCQACRF [R14H]
6. YSCPATWECEITKRRRKSCQACRF [N7W]

## Result
1. 3.56
2. 3.05
3. 3.29
4. 3.37
5. 4.23
6. 2.35

Value sought for every listed variant: protein stability index.
1. YSCPATNECEITKRGRKSCQACRF [R15G]
2. YSCPATNHCEITKRRRKSCQACRF [E8H]
3. YSCPATNECEITKRRRKSCDACRF [Q20D]
4. YSCPAANECEITKRRRKSCQACRF [T6A]
5. YSCPATNYCEITKRRRKSCQACRF [E8Y]
6. YSCPATNECEITKRRWKSCQACRF [R16W]
7. YSCPATNECGITKRRRKSCQACRF [E10G]
8. YSCPETNECEITKRRRKSCQACRF [A5E]

## Result
[3.91, 3.14, 3.7, 3.13, 2.32, 3.06, 3.23, 3.73]

Would you mind listing protein stability index for each of the following variants?
1. YSCPATFECEITKRRRKSCQACRF [N7F]
2. YSCPATNECEITKRRRKGCQACRF [S18G]
3. YSCPATNECEITKRRRKSCQAVRF [C22V]
4. YSCPATNECEITKRRRKSCQACEF [R23E]
5. YSCPATNECEITKRRRKSDQACRF [C19D]

## Result
1. 2.52
2. 2.74
3. 3.66
4. 4.02
5. 4.09

Taken from the supplement of paper PMC10567573.
